Here is a set of molecules with reported IC50 for ASK1 (Homo sapiens (Human), UniProt Q99683), compiled from the literature.

// known answers, use as guide
Cc1ccc(-c2c[nH]c(C(=O)Nc3cccc(-c4nncn4C(C)C)n3)c2)cc1 : 6 nM
Cc1cc(F)c(C(=O)Nc2cccc(-c3nnnn3C(C)C)n2)cc1-c1ccccn1 : 100 to 1000 nM
CCN(CC)C(=O)N1CCc2cc(F)c(C(=O)Nc3cccc(-c4nnnn4C(C)C)n3)cc2C1 : 1 to 10 nM
CC(C)n1nnnc1-c1cccc(NC(=O)c2cc3c(cc2F)CCN(C(=O)N2CCN(C)CC2)C3)n1 : 10 to 100 nM
Cc1cc(F)c(C(=O)Nc2cccc(-c3nncn3C(C)C)n2)cc1C1CC1C(=O)N1CCC(F)(F)C1 (centres unmarked) : > 10 nM

Hi team, please reply with IC50 for each item in this list.
1. CC(C)n1cnnc1-c1cccc(NC(=O)c2ccc3ccc(N4CCCCC4)nc3c2)n1
2. CCNC(=O)N1CCc2cnc(C(=O)Nc3cccc(-c4nnnn4[C@H](C)CO)n3)cc2C1
3. CC(C)CS(=O)(=O)N1CCc2cc(F)c(C(=O)Nc3cccc(-c4nnnn4C(C)C)n3)cc2C1

output:
["10 to 100 nM", "1 to 10 nM", "10 to 100 nM"]

====

Across several studies, compounds have been characterized by their IC50 on UniProt:Q99683; a selection follows.

CC(C)n1cnnc1-c1cccc(NC(=O)c2ccc(-c3ccc(S(C)(=O)=O)cc3)[nH]2)n1 : 4.4 nM
CC(C)c1nnnn1-c1cccc(NC(=O)c2cc3c(cc2F)CCN(C(=O)N(C)CCC(F)(F)F)C3)n1 : 100 to 1000 nM
Cc1csc2c1CN(c1cccc(-c3nncn3C3CC3)n1)C2=O : < 1000 nM

Now examine the next entry.
input: Query (compound): Cn1cncc1-c1ccc2c(c1)C(=O)N(c1cccc(-c3nncn3C3CC3)n1)C2 ; field requested: IC50
output: < 200 nM

====

Field IC50: reported value for ASK1 (Homo sapiens (Human), UniProt Q99683); entries drawn from several documents.

Example entries begin here.
O=C(Nc1cccc2c1OC[C@@H](CO)n1nnnc1-2)c1cc(-n2cnc(C3CC3)c2)ccn1 : 11.6 nM
CCN1CCc2cc(F)c(C(=O)Nc3cccc(-c4nnnn4[C@H](C)CO)n3)cc2C1 : 100 to 1000 nM
CC(C)N1Cc2ccc(C(=O)Nc3cccc(-c4nnnn4C(C)C)n3)cc2C1=O : 100 to 1000 nM
C=CCNC(=O)N1CCc2ccc(C(=O)Nc3cccc(-c4nncn4C(C)C)n3)cc2C1 : 10 to 100 nM
CC(C)N1Cc2cc(F)c(C(=O)Nc3cccc(-c4nnnn4[C@H](C)CO)n3)cc2S1(=O)=O : 10 to 100 nM
O=C(c1ccc2c(c1)CN(c1cccc(-c3nncn3C3CC3)n1)C2=O)N1CCCC1 : < 200 nM

Could I get IC50 for every one of these entries?
1. O=C1c2cc(-c3cnccc3Cl)ccc2CN1c1cccc(-c2nncn2C2CC2)n1
2. C[C@H](CO)n1nnnc1-c1cccc(NC(=O)c2cc3c(cc2F)CCN(c2ncccn2)C3)n1

output:
< 200 nM
1.25 to 10 nM

====

For reference, the following pIC50 results for ASK1 (Homo sapiens (Human)) were taken from various sources.
pIC50: −log10 of the molar value.

CC(C)n1nnnc1-c1cccc(NC(=O)c2cc3c(cc2F)CCN(c2ccccc2)C3)n1 : 7.00 to 8.00

Please state pIC50 for every molecule in the list that follows.
1. COc1cc2c(cc1C(=O)Nc1cccc(-c3nnnn3[C@H](C)CO)n1)CN(C(=O)N1CC[C@@H](O)C1)CC2
2. Cc1cc(F)c(C(=O)Nc2cccc3c2O[C@H](C)Cn2nnnc2-3)cc1-n1cnc(C2CC2)c1
3. O=C1c2ccc(C(=O)n3cccn3)cc2CN1c1cccc(-c2nncn2C2CC2)n1
4. Cc1cnc(C(=O)Nc2cccc(-c3nnnn3C(C)C)n2)cc1-c1ccc(C2CC2)s1
5. CCCOC(=O)N1CCc2ccc(C(=O)Nc3cccc(-c4nncn4C(C)C)n3)cc2C1
6. O=C1c2ccccc2CN1c1cccc(-c2nnc3n2[C@H](CO)CC3)n1
7. CC(C)n1nnnc1-c1cccc(NC(=O)c2cc3c(cc2F)CCN(C(=O)N(C)CCC(F)(F)F)C3)n1

output:
1. > 8.90
2. 9.05
3. > 6.70
4. 7.00 to 8.00
5. 7.00 to 8.00
6. 5.00 to 6.00
7. 7.00 to 8.00
